Would you kindly list TGI for each of these compounds?
# System: NCI-H23 lung
# test: NCI tumour cell line growth inhibition, 48 h

What value of TGI has been reported for the following compound? COc1ccc2c(C)cc(N/N=C/c3ccc(OC)c4ccccc34)nc2c1
32.8 µM

Thanks! And O=c1[nH]c(=O)n(C2OC(COP(=O)(O)OP(=O)(O)OC3OC(CO)C(O)C(O)C3O)C(O)C2O)cc1F (stereo not given) ?
> 31.5 µM

Thanks! And COc1cc2c(cc1OC)C(C(CO)CO)N(CC(O)CCl)CC2 (stereo not given) ?
> 100 µM

Thanks! And COCCCNC(=O)C1C(=O)N(CCCOC)C(=O)/C1=N\N (stereo not given) ?
> 100 µM

Thanks! And COC(=O)N(C(=O)OC)C(C(=O)O)C(C)C (stereo not given) ?
> 100 µM

----------
# Tested on: NCI-H23 lung
# test: NCI tumour cell line growth inhibition, 48 h
Would you kindly list GI50 for each of these compounds?

What value of GI50 has been reported for the following compound? CC[N+](CC)=c1sc2c(s1)C(c1ccc(Cl)cc1)Oc1ccc(Cl)cc1-2 (stereo not drawn)
1.07 µM

Thanks! And COc1ccc(S(=O)(=O)N2CC(C)(C)CN(S(=O)(=O)c3ccc(OC)cc3)C2C(=O)NO)cc1 ?
> 20 µM

Thanks! And Cc1nn(-c2nc3ccccc3[nH]2)c(N)c1-c1ccc(Cl)cc1 ?
5.23 µM

----------
# Tested on: SK-OV-3 ovarian
# test: NCI tumour cell line growth inhibition, 48 h
If the reported TGI equals or exceeds 6 µM, assign TRUE. If not, assign FALSE.

Check if TGI >= 6 µM (inclusive). Item: COc1ccc(-c2cn[nH]c2-c2cc(OC)c3c(c2)OCO3)cc1
FALSE

Thanks! And CCC[CH2][Sn]([CH2]CCC)([CH2]CCC)[O]c1ccc(Cl)cc1Cl ?
FALSE

Thanks! And C=C(C)C(=O)O[C@H]1C[C@@]23O[C@@H]2CCC(=C[C@H]2OC(=O)C(=C)[C@H]12)COC3O (stereo not given in full) ?
TRUE

Thanks! And CCOc1ccc2nc(SCc3nc4n(n3)S(=O)(=O)c3ccccc3N4C)sc2c1 ?
TRUE

Thanks! And CCCCC(=O)NS(=NC(=O)c1ccccc1)C(Cl)(Cl)Cl (stereo not given) ?
TRUE

Thanks! And CCCCCC[N+](C)(C)Cc1ccc(C[N+](C)(C)CCCCCC)cc1 ?
TRUE

Thanks! And CN1CCCC2(CCCc3ccccc32)C1 (stereo not given) ?
TRUE

Thanks! And C#CCOc1cccc(-c2ncnc3cc(NC(=O)CCl)ccc23)c1 ?
TRUE

Thanks! And Cc1nn(-c2nc3ccccc3[nH]2)c(N)c1-c1ccc(Cl)cc1 ?
TRUE

----------
# System: SF-539 CNS
# test: NCI tumour cell line growth inhibition, 48 h
Where a SMILES comes first, the peptide text is derived from it. The star is where a group is joined. Boc = CC(C)(C)OC(=O)*; OSu = O=C1CCC(=O)N1O*
measurement.kind: TGI

What value of TGI has been reported for the following compound? COC(=O)CCC(=O)NC1=C(Nc2ccc(OC)cc2)C(=O)c2ccccc2C1=O
27.9 µM

Thanks! And Nc1ncnc2c1nnn2C1C=CC(COS(N)(=O)=O)C1 (stereo not given) ?
7.39 µM

Thanks! And CCc1cc(Cc2cc(Cl)c(NC(=O)C(=O)C3NC(=O)NC3=O)c(CC)c2)cc(Cl)c1NC(=O)C(=O)C1NC(=O)NC1=O (stereo not given) ?
> 100 µM

Thanks! And CNC(=O)c1ccc(N2CCN(Cc3ccc4nc(C)c(=O)[nH]c4c3F)CC2)c(F)n1 ?
> 100 µM

Thanks! And C=C1C(=O)O[C@@H]2C[C@@H](C)[C@@H]3C=CC(=O)[C@@]3(C)[C@@H](OC(=O)CC(=O)O[C@H]3[C@@H]4C(=C)C(=O)O[C@@H]4C[C@@H](C)[C@@H]4C=CC(=O)[C@]43C)[C@H]12 ?
0.0781 µM

Thanks! And O=C(/N=C/c1c(O)c2ccccc2oc1=O)Nc1ccccc1 ?
> 100 µM

Thanks! And COC(=O)/C=C\n1c(C)cc(=O)[nH]c1=O ?
> 100 µM

Thanks! And COc1ccc2c(c1)C(=O)c1c-2n(CCCN=[N+]=[N-])c(=O)c2cc(OC)c(OC)cc12 ?
> 100 µM

Thanks! And COC(=O)/C=C1/CCC(C(=O)OC)N1 (stereo not given) ?
> 100 µM

Thanks! And Cc1[nH]c2ccccc2c1C(=O)CC1(O)C(=O)Nc2ccccc21 (stereo not given) ?
> 100 µM

Thanks! And COc1cccc(-c2nc3sccn3c2-c2ccnc(NCCCNS(=O)(=O)c3cccc(F)c3)c2)c1 ?
> 100 µM

Thanks! And OC(c1cc2ccccc2o1)c1cc2ccccc2s1 (stereo not given) ?
> 10 µM

Thanks! And O=C1Nc2ccccc2C12CCNC2Cc1ccccc1 (stereo not given) ?
> 100 µM

Thanks! And CC(C)CCC(=O)c1ccoc1 ?
> 100 µM

Thanks! And CN(C)CC(C)(C)/C(=N\Nc1ccccc1)c1ccccc1 ?
63.4 µM

Thanks! And O=C1NC(SSC2=NNC3(C(=O)N2)c2ccccc2-c2ccccc23)=NNC12c1ccccc1-c1ccccc12 ?
> 10 µM

Thanks! And Cc1c(Cl)c2ccccc2n1S(=O)(=O)c1ccccc1 ?
> 100 µM

Thanks! And COC(=O)CCc1c[nH]c2ccc(N(CCCl)CCCl)cc12 ?
4.69 µM

Thanks! And Nc1ccc(C2=NN(c3ccccc3)C(c3ccc(Cl)cc3)C2)cc1 (stereo not given) ?
4.21 µM

Thanks! And CC1(C)N=C(C(N)=O)c2ncn(N)c2N1 ?
> 100 µM

Thanks! And COc1cc(-c2cc3ncccc3c3nc(N)c4cccnc4c23)cc(OC)c1OC ?
2.6 µM

Thanks! And CN[C@H]1C=C[C@@H]2/C=C(C)/C=C/[C@@H](C)[C@H]([C@H](C)[C@H](O)[C@@H](C)NC(C)=O)OC(=O)/C=C/C=C(C)\C=C\[C@]2(C)C1 ?
12.8 µM

Thanks! And COC(=O)NCCc1[nH]nc2c1C(=O)C=C(N1CCOCC1)C2=O ?
> 100 µM

Thanks! And CCCCC(C#N)(OP1(=O)OC(c2ccccc2)C(C)N1C)c1ccccc1 (stereo not given) ?
31.2 µM

Thanks! And COc1cc(NC(N)=NCCC(C)(C)Oc2ccc(C(F)(F)F)cc2)ncc1C#N ?
3.26 µM

Thanks! And CC(=O)[CH-]C(C)=O.CC(=O)[CH-]C(C)=O.[CH2-]CCC.[CH2-]CCC.[Sn+4] ?
1.91 µM

Thanks! And COc1cc2c(cc1OC)C(C(CO)CO)N(CC(O)CCl)CC2 (stereo not given) ?
> 100 µM

Thanks! And O=CN1CCN(C(=O)c2ccc(Cl)cc2Cl)C1=S ?
> 100 µM

Thanks! And O=C(NCCC1([N+](=O)[O-])CCN(C(=O)c2ccccc2)CC1)c1ccccc1 ?
> 100 µM

Thanks! And O=c1c(Oc2ccc(F)cc2F)cc2cnc(NC3CCOCC3)nc2n1CCCO ?
> 25 µM

Thanks! And Cn1cc(C2=C(c3cn(CCCCN)c4ccccc34)C(=O)NC2=O)c2ccccc21 ?
> 25 µM

Thanks! And COc1ccc(-n2cnnc2-c2nsc3ccccc23)cc1 ?
> 100 µM

Thanks! And CCc1cccc(C)c1NC(=O)c1sc2nc3c(cc2c1N)CCCCC3 ?
8.21 µM

Thanks! And Nc1nc(Cl)c(N)c(NCC2(CO)CC(OCc3ccccc3)C2)n1 (stereo not given) ?
> 100 µM

Thanks! And C[C@]12CCC(=O)C=C1CC[C@@H]1[C@@H]2[C@@H](O)C[C@@]2(C)[C@H]1CC[C@]2(O)C(=O)COC(=O)COCC(=O)O ?
> 100 µM

Thanks! And CC(NC(=O)C(C)NC(=O)C(N)CCP(C)(=O)O)C(=O)O (stereo not given) ?
> 100 µM

Thanks! And Cc1nc(Nc2ccc(Cl)cc2)sc1C(=O)NNc1ccc([N+](=O)[O-])cc1[N+](=O)[O-] ?
32 µM

Thanks! And CC(NC(=O)C(NC(=O)OC(C)(C)C)C(C)C)C(=O)NCC(=O)ON1C(=O)CCC1=O (stereo not drawn) (Boc-Val-Ala-Gly-OSu; configuration not given here) ?
> 100 µM

Thanks! And COCCCNC(=O)C1C(=O)N(CCCOC)C(=O)/C1=N\N (stereo not given) ?
> 100 µM

Thanks! And O=C(Nc1cccc(-n2ccc3c(NC(=O)c4ccccc4)nccc32)c1)Nc1cc(C(F)(F)F)cc(C(F)(F)F)c1 ?
4.76 µM
